Test: qHTS of pediatric cancer cell lines to identify multiple opportunities for drug repurposing: Primary screen for SK-N-MC cells (AID 1347093)
Settings: SK-N-MC viability, CellTiter-Glo luminescence, 48 h; series mostly up to 46 µM
Results filed as inconclusive are left out. Calls of active or inactive are those of the source. Calls follow the shape of the dose curve; as a rule, active = well fitted cell-killing curve with a large enough effect; inconclusive = small, poorly fitted or top-dose-only effect; inactive = no such curve, though single readings can be large or run the other way. Residues, ends and D or L forms follow the SMILES beside them. *: point of attachment. Cbz = O=C(OCc1ccccc1)*
Hi there, use one of these labels in your reply, thanks! active, inactive

* CC(C)C[C@@H](C=O)NC(=O)[C@H](CC(C)C)NC(=O)[C@H](CC(C)C)NC(=O)OCc1ccccc1 (Cbz-Leu-Leu-Leu-aldehyde) | active
* CC(C)[C@H](CO)Nc1nc(Nc2cccc(Cl)c2)c2ncn(C(C)C)c2n1 | active
* CC(=O)N[C@@H]1[C@H](O[C@@H]2c3ccc(c(Cl)c3)Oc3cc4cc(c3O[C@H]3O[C@H](CO)[C@@H](O)[C@H](O)[C@H]3NC(=O)CCCCCCCC(C)C)Oc3ccc(cc3Cl)C[C@H]3NC(=O)[C@H](N)c5ccc(O)c(c5)Oc5cc(O)cc(c5)[C@H](NC3=O)C(=O)N[C@H]4C(=O)N[C@H]3C(=O)N[C@@H]2C(=O)N[C@@H](C(=O)O)c2cc(O)cc(O[C@H]4O[C@H](CO)[C@@H](O)[C@H](O)[C@H]4O)c2-c2cc3ccc2O)O[C@H](CO)[C@@H](O)[C@@H]1O | inactive
* O=C1c2c(O)cccc2[C@@H]([C@@H]2O[C@H](CO)[C@@H](O)[C@H](O)[C@H]2O)c2cc(CO)cc(O)c21 | active

Let us examine a further case.
Query string: Please let me know the test result on file for "Cc1[nH]c(C=C2C(=O)Nc3ccccc32)c(C)c1CCC(=O)O" .
Result string: active

All figures here come from PubChem BioAssay (NCATS).
